- assay.summary: soluble on expression in E. coli; label from the status in PepcDB or PDB records

[
  {
    "residue.codes": "MSLTLDVWQHIRQEAKELAENEPMLASFFHSTILKHQNLGGALSYLLANKLANPIMPAISLREIIEEAYQSNPSIIDCAACDIQAVRHRDPAVELWSTPLLYLKGFHAIQSYRITHYLWNQNRKSLALYLQNQISVAFDVDIHPAAKIGHGIMFDHATGIVVGETSVIENDVSILQGVTLGGTGKESGDRHPKVREGVMIGAGAKILGNIEVGKYAKIGANSVVLNPVPEYATAAGVPARIVSQDKAAKPAFDMNQYFIGIDDGMNLNEGGSHHHHHH",
    "soluble on expression in E. coli": "soluble"
  },
  {
    "residue.codes": "MTNNDTTLQLSSVLNRECTRSRVHCQSKKRALEIISELAAKQLSLPPQVVFEAILTREKMGSTGIGNGIAIPHGKLEEDTLRAVGVFVQLETPIAFDAIDNQPVDLLFALLVPADQTKTHLHTLSLVAKRLADKTICRRLRAAQSDEELYQIITDTEGTPDEA",
    "soluble on expression in E. coli": "soluble"
  }
]
